test system: desmoglein-1 (DSG1); assay: 3D micro-epidermis model (EpiScreen): desmoglein-1 immunostaining; type: cell-based, human; conditions: Homo sapiens, 72 h, 100 nM; supplementary data; Tox = toxic; read-out: DSG 100 nM
Provide the recorded activation at 0.1 µM for the entries that follow.
Quick note: unit goes after the number.

Asked: Give reported activation at 0.1 µM value for CS(=O)(=O)CCNCc1ccc(-c2ccc3ncnc(Nc4ccc(OCc5cccc(F)c5)c(Cl)c4)c3c2)o1 [Lapatinib]
Given back: 47%

Asked: Give reported activation at 0.1 µM value for COc1cc2ncnc(Nc3ccc(F)c(Cl)c3)c2cc1OCCCN1CCOCC1 [Gefitinib]
Given back: 41%

Asked: Give reported activation at 0.1 µM value for CCCS(=O)(=O)Nc1ccc(F)c(C(=O)c2c[nH]c3ncc(-c4ccc(Cl)cc4)cc23)c1F [Vemurafenib]
Given back: -26%

Asked: Give reported activation at 0.1 µM value for Cc1ccnc2c1NC(=O)c1cccnc1N2C1CC1 [Nevirapine]
Given back: -8%

Asked: Give reported activation at 0.1 µM value for C=CC(=O)Nc1cc(Nc2nccc(-c3cn(C)c4ccccc34)n2)c(OC)cc1N(C)CCN(C)C [Osimertinib]
Given back: 18%
